Target Desc: LpxC enzyme (Escherichia coli)
Sequence (P0A725 1-305): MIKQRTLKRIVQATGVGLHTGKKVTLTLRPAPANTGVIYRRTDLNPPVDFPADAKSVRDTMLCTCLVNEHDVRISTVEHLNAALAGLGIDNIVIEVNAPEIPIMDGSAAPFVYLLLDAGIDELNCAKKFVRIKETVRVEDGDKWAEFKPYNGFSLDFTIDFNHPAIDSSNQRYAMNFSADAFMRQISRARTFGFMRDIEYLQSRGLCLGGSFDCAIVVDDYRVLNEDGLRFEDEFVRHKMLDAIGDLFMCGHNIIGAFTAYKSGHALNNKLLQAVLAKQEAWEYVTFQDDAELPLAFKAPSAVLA
pIC50: −log10 of the molar value.
Exercise: for every item that follows, state its recorded pIC50.

C[C@@H](O)[C@@H](C(=O)NO)N1Cc2cc(Cc3ccc(-c4ccccc4)cc3)ccc2C1=O :: > 7.30

Give pIC50 for each of the items listed below.
1. CC(O)C(C(=O)NO)N1C(=O)c2ccc(Br)cc2C1=O (stereo not drawn)
2. C[C@@H](O)[C@@H](C(=O)NO)N1Cc2cc(C#Cc3ccc(-c4ccccc4)cc3)ccc2C1=O
3. C[C@@H](O)[C@@H](C(=O)NO)N1Cc2cc(-c3ccc(-c4ccccc4)cc3)ccc2C1=O
4. C[C@@H](O)[C@@H](C(=O)NO)N1CC2CN(Cc3ccc(C#Cc4ccccc4)cc3)CCN2C1=O (stereo partly drawn)
5. C[C@@H](O)[C@@H](C(=O)NO)N1Cc2cc(N3CCN(c4ccc(C(=O)Cc5ccccc5)cc4)CC3)ccc2C1=O
6. C[C@@H](O)[C@@H](C(=O)NO)N1Cc2cc(C#Cc3ccccc3)ccc2C1=O
7. C[C@@H](O)[C@@H](C(=O)NO)N1Cc2cc(Br)ccc2C1=O

[A]
> 5.30
> 7.30
> 7.30
> 5.30
> 5.30
> 5.30
> 5.30
